- System: HEK-293T
- MEASUREMENT DESCRIPTION: Multiplex assay against HEK293T
- Type: toxicity, cell-based
- CONDITION LABEL: human, 12 h, 10 µM, compound concentration 10 uM, replicate 2
Consider the cut-off 40%. If the recorded Population Mitochondria Different-Phenotype (%) is strictly smaller, the label is satisfied; if not, the label is not satisfied.

Population Mitochondria Different-Phenotype (%) under 40%? Item: O=C(c1cc2c(cc1F)OC(c1ccc(F)cc1)(c1ccc(Cl)cc1Cl)O2)N1CCOCC1 (centres undefined) not satisfied

Also, COc1cc(Nc2nccc(-c3cnn4nc(OC)ccc34)n2)cc(C(F)(F)F)c1 please. satisfied

Also, Cc1cccc(CN2CCN(C(c3ccccc3)c3ccc(Cl)cc3)CC2)c1.Cl.Cl (centres undefined) please. not satisfied

Also, Cl.O=C(O)c1cc(-c2ccc(C3CCNCC3)cc2)c2ccc(-c3ccc(C(F)(F)F)cc3)cc2c1 please. not satisfied

Also, CN1CCN(Cc2ccc(Nc3ncc(Cl)c(Nc4ccccc4S(=O)(=O)N(C)C)n3)cc2)CC1 please. satisfied

Also, COc1ccccc1CN[C@H]1C2CCN(CC2)[C@H]1C(c1ccccc1)c1ccccc1 please. not satisfied

Also, CCc1ccc(OCc2ccccc2C(=O)Nc2ccc3nc(C)cc(N)c3c2)cc1.Cl please. satisfied

Also, Cc1nc(N2CC[C@H](O)C2)ncc1-c1cc(C(F)(F)F)cc2[nH]ncc12 please. satisfied

Also, O=c1cc(N2CCOCC2)oc2c(-c3cccc4c3sc3ccccc34)cccc12 please. not satisfied

----------
- Tested on: Fibroblast
- MEASUREMENT DESCRIPTION: Multiplex assay against human fibroblast
- Type: toxicity, cell-based
- CONDITION LABEL: 24 h, 10 µM, compound concentration 10 uM, replicate 1
MEASURED ATTRIBUTE: Population Pyknosed Nuclei (%)
The reply should consist of the numeric value with the unit placed after it.

Below: 8 compounds and their reported Population Pyknosed Nuclei (%).
Cc1nc(N2CC[C@H](O)C2)ncc1-c1cc(C(F)(F)F)cc2[nH]ncc12: 14%
COc1ccccc1CN[C@H]1C2CCN(CC2)[C@H]1C(c1ccccc1)c1ccccc1 [CP-96345]: 14%
C=CC(=O)Nc1cccc(Sc2nc(Nc3ccc(N4CCN(C)CC4)cc3)ncc2Cl)c1: 14%
C[C@]12CC[C@@H]3c4ccc(O)cc4CC[C@H]3[C@@H]1CC[C@@H]2O [ESTRADIOL]: 17%
Cc1cccc(CN2CCN(C(c3ccccc3)c3ccc(Cl)cc3)CC2)c1.Cl.Cl (stereo unspecified): 26%
CC(C)Oc1ccccc1C(=O)Nc1ccccc1C(=O)Nc1cccc(S(=O)(=O)C(F)(F)F)c1: 21%
CC(C)NC(=O)N1CC[C@H](NC2=Nc3cc(F)ccc3N(CC(F)F)c3ccc(Cl)cc32)C1: 21%
CNC(=O)Nc1ccc2c(c1)[C@@]1(CC2)OC(=O)N(CC(=O)N(Cc2ccc(F)cc2)[C@@H](C)C(F)(F)F)C1=O [A-486]: 15%

# batch: return Population Pyknosed Nuclei (%) for each of the 8 compounds below
1. O=c1[nH]c2ccccc2n1C1CCN(Cc2ccc(-c3[nH]c4cc5ncnc5cc4nc3-c3ccccc3)cc2)CC1
2. CC(C)OC(=O)N1CCC(Oc2ncnc3c2cnn3-c2ccc(S(C)(=O)=O)cc2F)CC1
3. CC(C)(C)NC[C@H](O)COc1nsnc1N1CCOCC1 [TIMOLOL]
4. Cl.O=C(O)c1cc(-c2ccc(C3CCNCC3)cc2)c2ccc(-c3ccc(C(F)(F)F)cc3)cc2c1
5. Cc1c[nH]c2nccc(Oc3c(F)cc(Nc4cc(Cl)nc(N)n4)cc3F)c12 [BAY-549]
6. CN1CCN(Cc2ccc(Nc3ncc(Cl)c(Nc4ccccc4S(=O)(=O)N(C)C)n3)cc2)CC1 [DUBERMATINIB]
7. COC(=O)C1=C(C)NC(C)=C(C(=O)OCCCN2CCC(c3ccccc3)(c3ccccc3)CC2)[C@H]1c1cccc([N+](=O)[O-])c1 [NIGULDIPINE]
8. CC(C)c1noc(N2CCC(COc3ccc(-c4ccc(S(C)(=O)=O)cc4)nc3)CC2)n1 [GSK-1292263]

["10%", "27%", "27%", "28%", "25%", "21%", "59%", "34%"]

# batch: return Population Pyknosed Nuclei (%) for each of the 8 compounds below
1. COc1ccc(-c2ccc3ncc4c(c3c2)n(-c2ccc(N3CCNCC3)c(C(F)(F)F)c2)c(=O)n4C)cn1.O=C(O)/C=C\C(=O)O [BGT-226]
2. CC(C)CC(=O)Nc1[nH]nc2c1CN(C(=O)C1CCN(C)CC1)C2(C)C [PHA-793887]
3. CCc1nn(CCCN2CCN(c3cccc(Cl)c3)CC2)c(=O)n1CCOc1ccccc1.Cl [NEFAZODONE HYDROCHLORIDE]
4. Cc1ccc2c(c1)c1c(n2CCc2ccc(C)nc2)CCN(C)C1 [LATREPIRDINE]
5. O=C(c1cc2c(cc1F)OC(c1ccc(F)cc1)(c1ccc(Cl)cc1Cl)O2)N1CCOCC1 (stereo unspecified)
6. CCCSc1nc(N[C@@H]2C[C@H]2c2ccc(F)c(F)c2)c2nnn([C@@H]3C[C@H](OCCO)[C@@H](O)[C@H]3O)c2n1 [TICAGRELOR]
7. C=CC(=O)Nc1cccc(Oc2nc(Nc3ccc(N4CCN(C)CC4)cc3OC)ncc2Cl)c1
8. O=c1cc(N2CCOCC2)oc2c(-c3cccc4c3sc3ccccc34)cccc12

1: 44%; 2: 12%; 3: 18%; 4: 14%; 5: 35%; 6: 38%; 7: 16%; 8: 26%

# batch: return Population Pyknosed Nuclei (%) for each of the 6 compounds below
1. COc1cc(Nc2nccc(-c3cnn4nc(OC)ccc34)n2)cc(C(F)(F)F)c1
2. C=CC(=O)Nc1ccc2[nH]c(=O)n(C3CCN(Cc4ccc(-c5nc6cc[nH]c(=O)c6cc5-c5ccccc5)cc4)CC3)c2c1 [Borussertib]
3. CCc1ccc(OCc2ccccc2C(=O)Nc2ccc3nc(C)cc(N)c3c2)cc1.Cl
4. CC1=C(C(=O)Nc2cc3cn[nH]c3cc2F)C(c2ccc(C(F)(F)F)cc2)CC(=O)N1 (stereo unspecified)
5. CNC(=O)Nc1ccc(-c2nc(N3CC4CCC(C3)O4)c3cnn(C4CCC5(CC4)OCCO5)c3n2)cc1
6. COc1cc2ncn(-c3cc(OCc4ccccc4C(F)(F)F)c(C(N)=O)s3)c2cc1OC [GW843682X]

["21%", "13%", "25%", "19%", "35%", "43%"]

What does the record list as Population Pyknosed Nuclei (%) for Cc1ccccc1C(c1ccccc1C)N1C2CCC1CC(O)(c1ccccc1)C2 (stereo unspecified) ? 28%

----------
- System: Fibroblast
- MEASUREMENT DESCRIPTION: Multiplex assay against human fibroblast
- Type: toxicity, cell-based
- CONDITION LABEL: 24 h, 1 µM, compound concentration 1 uM, replicate 2
Please assign a class to every record based on measured Population Mitochondria Different-Phenotype (%), with ranges range A = under 9%, range B = from 9% up to 30%, range C = 30% and over

Example results:
CC(C)CC(=O)Nc1[nH]nc2c1CN(C(=O)C1CCN(C)CC1)C2(C)C: range B
CC(C)(C)NC[C@H](O)COc1nsnc1N1CCOCC1: range B
C=CC(=O)Nc1cccc(Oc2nc(Nc3ccc(N4CCN(C)CC4)cc3OC)ncc2Cl)c1: range C
O=c1[nH]c2ccccc2n1C1CCN(Cc2ccc(-c3[nH]c4cc5ncnc5cc4nc3-c3ccccc3)cc2)CC1: range B
CCc1ccc(OCc2ccccc2C(=O)Nc2ccc3nc(C)cc(N)c3c2)cc1.Cl: range C

Assign a bin to Cc1cccc(CN2CCN(C(c3ccccc3)c3ccc(Cl)cc3)CC2)c1.Cl.Cl (centres undefined) range B

Also, CCOC(=O)Nc1cc(-c2ccc(C)c(NS(C)(=O)=O)c2)nn2c(C)nnc12 please. range A

Also, Cc1c[nH]c2nccc(Oc3c(F)cc(Nc4cc(Cl)nc(N)n4)cc3F)c12 please. range A

----------
- Tested on: Fibroblast
- MEASUREMENT DESCRIPTION: Multiplex assay against human fibroblast
- Format: toxicity, cell-based
- CONDITION LABEL: 48 h, 10 µM, compound concentration 10 uM, replicate 1
Field: Population Apoptotic (%). Provide a value for each of the compounds that follow.
Answers are plain numbers, in %.

Below: 3 compounds and their reported Population Apoptotic (%).
CC1=C(C(=O)Nc2cc3cn[nH]c3cc2F)C(c2ccc(C(F)(F)F)cc2)CC(=O)N1 (centres undefined): 46
CNC(=O)Nc1ccc(-c2nc(N3CC4CCC(C3)O4)c3cnn(C4CCC5(CC4)OCCO5)c3n2)cc1: 50
Cc1ccccc1C(c1ccccc1C)N1C2CCC1CC(O)(c1ccccc1)C2 (centres undefined): 40

Pending compound:
What does the record list as Population Apoptotic (%) for COc1ccc(-c2ccc3ncc4c(c3c2)n(-c2ccc(N3CCNCC3)c(C(F)(F)F)c2)c(=O)n4C)cn1.O=C(O)/C=C\C(=O)O ? 66
